tested on: Pseudomonas aeruginosa (ATCC 10145); test: Maximum growth slope of Pseudomonas aeruginosa with Proxel DB20 (BIT) plus alkanolamine; format: cell-based; details: amine 1000 ppm, BIT 0 ppm; pH 8.5, TSB, 24 hour
Please go through the items and note down their maximum growth slope.
Hi! Could you send only the number? It should be in OD per time, unit omitted.

[Q] Indicate the recorded maximum growth slope value for this compound: CCCCCCCCNCCO [OAE, n-octylaminoethanol]
[A] 0.000

[Q] Indicate the recorded maximum growth slope value for this compound: CCCCNCCO [BAE, butylaminoethanol]
[A] 0.333

[Q] Indicate the recorded maximum growth slope value for this compound: CC(C)(N)CO [AMP, 2-methyl-2-amino-1-propanol, reference compound]
[A] 0.478

[Q] Indicate the recorded maximum growth slope value for this compound: CCCCN(CCO)CCCC [DBAE, dibutylaminoethanol]
[A] 0.228
